Target: T1, human M-CSF (human, UniProt P09603 33-190)
T1 chain: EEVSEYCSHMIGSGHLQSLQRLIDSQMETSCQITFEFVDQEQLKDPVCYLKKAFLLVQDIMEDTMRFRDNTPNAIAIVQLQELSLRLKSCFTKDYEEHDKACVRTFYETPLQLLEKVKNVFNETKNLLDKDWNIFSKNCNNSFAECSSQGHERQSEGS
Assay: receptor binding inhibition: antibody titrated against 125I-M-CSF binding to c-fms on cells (NIH-3T3/human c-fms or M-NSF-60)
pIC50 values, listed per item
A value of pIC50 is the negative decimal logarithm of a concentration given in moles per litre.

Below are worked cases with known answers.
monoclonal antibody 100 (antibody, human IgG2, kappa, V domains shown) VH: EVQLLESGGGLVQPGGSLRLSCAASGFTFSSYAMSWVRQAPGKGLEWVSAISGRGGRTYFADSVKGRFTISRDNSKNTLYLQMNSLRAEDTAVYFCAVEGYSGRYGFFDYWGQGTLVTVSS VL: EIVMTQSPATLSVSPGERATLSCRASQSVSSNLAWYQQKPGQAPRLLIYGASTRASGIPDRISGSGSGTEFTLIISSLQSEDFAVYYCQQSNNWPFTFGPGTKVDIKR = 8.90
monoclonal antibody 252 (antibody, human IgG2, kappa, V domains shown) VH: QVQLVESGGGLVKPGGSLRLSCAASGFTFSDYYMSWIRQAPGKGLEWISYISGSGSTIYYADSVKGRFTISRDNAKNSLYLQMNSLRAEDTAVYHCARALGGMDVWGQGTTVTVSS VL: DIQMTQSPSSLSASVGDRVTITCRASQSISGFLNWYQQKPGKAPKLLIYATSSLQSGVPFRFSGSGSGTDFTLTISSLQPEDFATYYCQQSYSVPFTFGPGTKVDIKR = 9.13

Would you mind telling me what pIC50 value was observed for monoclonal antibody 3.8.3 (antibody, human IgG2, kappa, V domains shown) VH: QVQLVESGGGLVKPGGSLRLSCAASGFTFSDYYMSWIRQAPGKGLEWFSYISSSGSTIYYADSVKGRFTISRDNAKNSLSLQMNSLRAEDTAVYYCARGLTGDYWGQGTLVTVSS VL: DIQMTQSPSSVSASVGDRVTISCRASQDISGWLAWYQQKPGKAPKLLISATSSLHSGVPSRFSGSGSGTDFTLTISSLQPEDFATYYCQQTNSFPFTFGPGTKVDIKR ?
10.15

meta.source: patent US20080254032A1
